# Test system: Influenza A virus
# protocol.notes: Anti-influenza activity against Influenza A virus A/Goose/Guangdong/SH7/2013 (H5N1) infected in chicken embryo fibroblast assessed as inhibition of virus-induced cytopathic effect
# Format: functional
Binning of inhibition (INH) into classes: LOW (below 30%), MEDIUM (30% to below 60%), HIGH (60% or more)

| molecule | label.value |
| --- | --- |
| COc1cccc(OC)c1C(=O)C1OC1c1ccc(C(C)(C)C)cc1 (centres undefined) | LOW |
| COc1ccc(/C=C/C(=O)/C=C/c2c(OC)cccc2OC)cc1 | LOW |
| COc1cccc(OC)c1/C=C/C(=O)/C=C/c1ccc(N2CCN(C)CC2)cc1 | MEDIUM |
| COc1cccc(OC)c1/C=C1\CCC/C(=C\c2ccc([N+](=O)[O-])cc2)C1=O | MEDIUM |
| COc1cccc(OC)c1/C=C1\CCC/C(=C\c2nc(C)c(C)nc2C)C1=O | MEDIUM |
| COc1cccc(OC)c1/C=C1\CCC/C(=C\c2ccccn2)C1=O | LOW |
| COc1cccc(OC)c1/C=C/C(=O)/C=C/c1ccccn1 | HIGH |
| COc1cccc(OC)c1C(=O)CCc1ccc(C(C)(C)C)cc1 | LOW |
| COc1cccc(OC)c1/C=C1\CCC/C(=C\c2ccc(C(C)(C)C)cc2)C1=O | MEDIUM |
| COc1cccc(OC)c1C(=O)N/N=C/c1nc(C)c(C)nc1C | HIGH |
| COc1cccc(OC)c1/C=C/C(=O)/C=C/c1c(C)cc(-c2ccccc2)cc1C | LOW |
| CCOc1ccc(/C=C/C(=O)/C=C/c2c(OC)cccc2OC)cc1 | MEDIUM |
| CCCOc1ccc(/C=C/C(=O)/C=C/c2c(OC)cccc2OC)cc1 | MEDIUM |
| COc1cccc(OC)c1C(=O)CCc1ccccn1 | LOW |
| COc1ccc(/C=C/C(=O)/C=C/c2c(OC)cccc2OC)cc1-c1ccccc1 | MEDIUM |
| COc1cccc(OC)c1/C=C/C(=O)/C=C/c1ccc(N2CCOCC2)cc1 | HIGH |
| COc1cccc(OC)c1C(=O)CCc1nc(C)c(C)nc1C | LOW |
| COc1cccc(OC)c1/C=C/C(=O)/C=C/c1ccc(-n2ccnc2C)cc1 | LOW |
| COc1cccc(OC)c1/C=C/C(=O)/C=C/c1ccc(C(C)(C)C)cc1 | HIGH |
| COc1cccc(OC)c1/C=C/C(=O)/C=C/c1ccc(-c2ccccc2)cc1 | MEDIUM |
| COc1cccc(OC)c1C(=O)C1OC1c1ccccn1 (centres undefined) | LOW |
| COc1cccc(OC)c1C(=O)N/N=C/c1ccc([N+](=O)[O-])cc1 | MEDIUM |
| COc1cc(/C=C/C(=O)/C=C/c2c(OC)cccc2OC)ccc1-c1ccccc1 | MEDIUM |
| COc1cccc(OC)c1/C=C1\CCC/C(=C\c2ccc(C)cc2)C1=O | MEDIUM |
| COc1cccc(OC)c1C(=O)N/N=C/c1ccc(C(C)(C)C)cc1 | MEDIUM |
| COc1cccc(OC)c1C(=O)N/N=C/c1ccc(C)cc1 | MEDIUM |
| COc1cccc(OC)c1/C=C/C(=O)/C=C/c1ccc([N+](=O)[O-])cc1 | HIGH |
| COc1cccc(OC)c1/C=C/C(=O)/C=C/c1ccc(-c2cccnc2)cc1 | LOW |
| COc1cccc(OC)c1/C=C/C(=O)/C=C/c1ccc(-n2ccnc2)cc1 | LOW |
| COc1cccc(OC)c1/C=C/C(=O)/C=C/c1ccc(N(C)C)cc1 | HIGH |
| CCN(CC)c1ccc(/C=C/C(=O)/C=C/c2c(OC)cccc2OC)cc1 | HIGH |
| COc1cccc(OC)c1C(=O)C1OC1c1nc(C)c(C)nc1C (centres undefined) | LOW |
| COc1cccc(OC)c1/C=C/C(=O)/C=C/c1ccc(-c2ccncc2)cc1 | LOW |
| COc1cccc(OC)c1/C=C/C(=O)/C=C/c1ccc(N2CCCC2)cc1 | HIGH |
| COc1cccc(OC)c1/C=C/C(=O)/C=C/c1ccc(-c2ccccc2)cc1C | LOW |
| COc1cccc(OC)c1/C=C/C(=O)/C=C/c1ccccc1N1CCOCC1 | HIGH |
| COc1cccc(OC)c1C(=O)N/N=C/c1ccccn1 | LOW |
| COc1cccc(OC)c1C(=O)C1OC1c1ccc([N+](=O)[O-])cc1 (centres undefined) | LOW |
| COc1cccc(OC)c1/C=C/C(=O)/C=C/c1cccc(N2CCOCC2)c1 | HIGH |
| COc1cccc(OC)c1C(=O)C1OC1c1ccc(C)cc1 (centres undefined) | MEDIUM |
